target: human GPRC5D (human, UniProt Q9NZD1 1-345); assay: cell-based or functional assay
Sequence (Q9NZD1 whole entry): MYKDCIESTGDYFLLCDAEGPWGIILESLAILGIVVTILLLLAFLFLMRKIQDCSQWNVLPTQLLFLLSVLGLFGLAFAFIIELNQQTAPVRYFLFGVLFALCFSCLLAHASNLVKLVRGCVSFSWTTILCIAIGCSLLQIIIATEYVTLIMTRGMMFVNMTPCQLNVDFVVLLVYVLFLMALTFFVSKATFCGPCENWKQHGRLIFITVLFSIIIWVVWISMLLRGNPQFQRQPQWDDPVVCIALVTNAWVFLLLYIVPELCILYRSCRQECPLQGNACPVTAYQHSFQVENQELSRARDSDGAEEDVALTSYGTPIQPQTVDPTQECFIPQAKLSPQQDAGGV
READOUT_TYPE: CAR-J2 EC50 (PGLALA-CAR-J activation, L363 target cells)

Example results:
P1AE5727 (antibody, V domains shown) VH: ELQLLESGGGLVQPGGSLRLSCAASGFTFSKYAMAWVRQAPGKGLEWVASISTGGVNTYYADSVKGRFTISRDNAKNTLYLQMNSLRAEDTAVYYCATHTGDYFDYWGQGTMVTVSS VL: DIVMTQSPDSLAVSLGERATINCKSSQSVSISGINLMNWYQQKPGQQPKLLIYHASILASGVPDRFSGSGSGTDFTLTISSLQAEDVAVYYCQQTRESPLTFGQGTRLEIK: 6.3 ng/mL
P1AE5715 (antibody, V domains shown) VH: ELQLLESGGGLVQPGGSLRLSCAASGFTFSKYAMAWVRQAPGKGLEWVASISTGGVNTYYRDSVKARFTISRDNAKNTLYLQMNSLRAEDTAVYYCATHTGDYFDYWGQGTMVTVSS VL: DIVMTQSPDSLAVSLGERATINCKSSQSVSISGINLMNWYQQKPGQQPKLLIYHASILASGVPDRFSGSGSGTDFTLTISSLQAEDVAVYYCQQTRESPLTFGQGTRLEIK: 3.6 ng/mL

Now look at this one.
Looking up P1AE5706 (antibody, V domains shown) VH: ELQLEQSGGGLVQPGGSLTLSCAASGFTFSKYAMAWVRQAPTKGLEWVASISTGGVNTYYRDSVKARFTISRDNAKNTQYLQMDSLRSEDTATYYCATHTGDYFDYWGQGVMVTVSS VL: DIVLTQSPALAVSPGQRATISCRASQSVSISGINLMNWYQQKPGQQPKLLIYHASILASGIPTRFSGSGSGTDFTLTIDPVQADDIATYYCQQTRESPLTFGSGTNLEIK , I see its CAR-J2 EC50 (PGLALA-CAR-J activation, L363 target cells) listed as 3.9 ng/mL
